Origin of values: the nanobody polyreactivity screen of Harvey et al. (2022)

ASSAY METHOD TEXT: yeast display, Sf9 membrane polyspecificity reagent, FACS + sequencing; frameworks hold sequencing errors
PROPERTY NAME: polyreactivity (PSR sort gate)

ORDERED RESIDUES	polyreactivity (PSR sort gate)
QVQLVESGGGLVQAGGSLRLSCAASGFIFGGYAMGWYRQAPGKERELVAAISRSGGSTYYADSVKGRFTISRDNAKNTVYLQMNSLKPEDTAVYYCAAKFWPEDHRMDYWGQGTQVTVSS	low polyreactivity
QVQLVESGGGLVQAGGSLRLTCAASGSIIKRNAMGWYRQAPGKERELVASISSGGSTKYADSVKGRFTISRDNAKTTVYLQMNSLKPEDTAVYYCPKRSSQTRRAYDYWGQGTQVTVSS	low polyreactivity
QVQLVESGGGLVQAGGSLRLSCAASGLTFRYYTMGWYRQAPGNERELVASSTSGGITYYADSVKGRFTISRDNAKNTVYLQMNSLKPEDPAVYYCAKGSYRTTYGALGVKYGYWGQGTQVTVSS	high polyreactivity
QVQVEDTGGGLVQEGGSHRLSCAASGRTFYYYTMGRYRQPPVKEREFVAAITISGARTYYADSVKGRFTISRDNAKNTVYLQMNSLKPEDTPVYYCAARRRYRSRVTTVGYNYWGQGTQVTVSS	high polyreactivity

(Q) Please supply the value of reported polyreactivity (PSR sort gate) for the item QVQLVESGGGLVQAGGSLRLSCAASGSIFLIYDMGWYRQAPGKEMELVAAISNSVGSTYADSVKGRFTISRDNAKNTVYLQINSLKPEDTAVYYCNADSGPIDGRGGYWGQGTQVTVSS
(A) low polyreactivity
